# target_desc: human FGFR2b extracellular domain (human, UniProt P21802)
# Sequence (P21802 22-377): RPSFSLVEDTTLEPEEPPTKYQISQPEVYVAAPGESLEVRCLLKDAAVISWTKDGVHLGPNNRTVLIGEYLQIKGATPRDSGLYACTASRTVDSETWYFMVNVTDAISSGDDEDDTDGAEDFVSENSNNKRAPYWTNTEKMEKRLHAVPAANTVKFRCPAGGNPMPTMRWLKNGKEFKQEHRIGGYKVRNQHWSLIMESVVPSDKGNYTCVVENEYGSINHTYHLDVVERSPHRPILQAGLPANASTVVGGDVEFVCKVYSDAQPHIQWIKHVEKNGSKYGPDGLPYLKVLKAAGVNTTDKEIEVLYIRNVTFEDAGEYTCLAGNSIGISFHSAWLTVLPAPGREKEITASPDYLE
# assay_comment: BLI
Listed next: entries and their corresponding pKd.
In textbook form, pKd equals minus log to base ten of the concentration in mol/L.

As a guide, the following entries are already answered.
3E7 (antibody, V domains shown) VH: QVQLQQSGAELVKPGASVKMSCKASGYTFTIYNIHWVRQTPGQGLEWIGLIYPDNGDTSYNQKFKAKATLTADKSSSTAYMQLSSLTSEDSAVYYCARGGFDYWGQGTTLTVSS VL: NIVMTQSQKFMSTSVGDRVSVTCKASQNVGTNVAWYQQKPGQSPKALIYSASYRYSGVPDRFTGSGSGTDFTLTISGVQAEDLADYYCQQHYNTPYTFGGGTKLEIK : 8.36
3A8 (antibody, V domains shown) VH: QVQLQQSGAELVKPGASVKMSCKASGYTFTIYNIHWVRQTPGQGLEWIGLIYPDNGDTSYNQKFKAKATLTADKSSSTAYMQLSSLTSEDSAVYYCARGGFDYWGQGTSLTVSS VL: DIVMTQSQKFMSTSVGDRVSVTCKASQNVGTNVAWYQQKPGQSPKALIYSASYRYSGVPDRFTGSGSGTDFTLTISNVQAEDLADYFCQQHYSTPYTFGGGTKLEMK : 8.46

Moving on to another binder below.
Challenge: Please report the measured pKd for 3B4 (antibody, V domains shown) VH: EVQLQQSGADLVKPGASVKMSCKASGYTFSYYNMHWVRRTPGQGLEWIGLIYPDNGDTSYNQKFKGKATLTADTSSSTAYMQLSSLTSEDSAVYYCARGGLDYWGQGTTLTVSS VL: DIQMIQSPASMSASVGETVTITCGASENIYGALNWYQRKQGKSPQLLIYGATNLADGMSSRFSGSGSGRQYSLKISSLHPDDVATYYCQNVLSTPYTFGGGTKLEMK
Response given: 8.20
